Reported LogEC50 values for the following binders.
# study target: T1, recombinant human CTLA4-Fc (Sino Biological, 11159-H03H) (human, UniProt P16410 37-162)
# T1 construct: bought; whole entry named; Biotinylated in the yeast display assays; also called human CTLA4 fused with human FC fragment; biotinylated CTLA4-Fc; not shown: human Fc fragment
# T1 sequence (looked up): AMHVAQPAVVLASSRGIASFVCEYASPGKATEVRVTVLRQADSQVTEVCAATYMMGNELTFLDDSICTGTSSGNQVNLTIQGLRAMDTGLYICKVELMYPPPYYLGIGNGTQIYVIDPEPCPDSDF
# experiment notes: ELISA, coated human CTLA4-Fc, batch 2

{"columns": ["binder", "LogEC50 (log M)"],
 "data": [
  ["TY22565 (antibody, IgG1, V domains shown) VH: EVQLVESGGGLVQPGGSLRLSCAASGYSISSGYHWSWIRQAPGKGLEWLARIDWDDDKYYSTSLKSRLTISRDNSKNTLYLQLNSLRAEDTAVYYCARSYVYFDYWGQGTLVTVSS VL: EVGSYPQPSSDCVPYYYACAYSGRSAGGGGSPLGLAGSGGSDIQLTQSPSSLSASVGDRVTITCRASQSVRGRFLAWYQQKPGKAPKLLIYDASNRATGIPSRFSGSGSGTDFTLTISSLQPEDFATYYCQQSSSWPPTFGQGTKVEIKR", -6.68],
  ["TY22401 (antibody, V domains shown, peptide fused to the N-terminus of the light chain; also called masking peptide B13189) VH: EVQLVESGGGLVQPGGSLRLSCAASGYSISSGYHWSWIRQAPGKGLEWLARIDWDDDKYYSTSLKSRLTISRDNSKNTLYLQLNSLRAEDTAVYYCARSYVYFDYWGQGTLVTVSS VL: EVGSYNFVADSCPDHPYPCSASGRSAGGGGSPLGLAGSGGSDIQLTQSPSSLSASVGDRVTITCRASQSVRGRFLAWYQQKPGKAPKLLIYDASNRATGIPSRFSGSGSGTDFTLTISSLQPEDFATYYCQQSSSWPPTFGQGTKVEIKR", -7.8]
]}
